experiment: Pharmacokinetic parameters in rats
Type: in vivo, SD rats
protocol-conditions: male, Sprague-Dawley, rat, plasma, po, 10 mg/kg, oral administration (gavage) 10 mg/kg, individual rats #1-#3, read-out: MRT0-t
measure-name: MRT last
Please provide the amount together with its unit, number first.

Cc1ccc(NC(=O)c2cccc(C(F)(F)F)c2)cc1-n1cc(-c2cncc(N3CCOCC3)c2)cn1; 5.99 h

Now for the molecule whose MRT last we want.
Query :: Name the recorded MRT last of the item Cc1ccc(NC(=O)c2cccc(C(F)(F)F)c2)cc1-n1cc(-c2cccnc2)cn1 [compound 1, reference compound] in your answer.
Result :: 1.82 h
